- EXPERIMENTAL TARGET: T1, recombinant human Tim-3-Fc (R&D Systems, 2365-TM) (human, UniProt Q8TDQ0 22-202, biotinylated in the Galectin-9 competition ELISA (sites not given))
- T1 construct: Bought protein; also called huTim-3-Fc; biotinylated Tim-3-Fc; not shown: Fc of the bought fusion protein
- ASSAY NOTES: SPR Biacore, human Tim-3 Fc;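 further: antibodies captured on an anti-FLAG sensor surface, Tim-3-Fc flowed over as analyte at 25 °C in HBS-EP+ buffer, rates fit with a 1:1 Langmuir model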
// values below are reported koff
Dear colleague, please return just the value in s⁻¹, with no unit written.

Known koff results, listed for orientation:
binder="h22E11-VK2-28 × h22E11-VH3-23 (antibody, V domains shown, Humanized m22E11) VH: EVQLLESGGGLVQPGGSLRLSCAVSGFSLTSYGVHWVRQAPGKGLEWLVVIWSDGSTTYNDSVKGRFTISKDNSKNTVYLQMNSLRAEDTAVYYCARQGGYRYDDAMDYWGQGTLVTVSS VL: DIVLTQSPLSLPVTPGEPASISCKASQSVDYDGNSYVNWYLQKPGQSPQLLIYAASNLESGVPDRFSGSGSGTDFTLKISRVEAEDVGVYYCQQSNEDPYTFGQGTKVEIK" value_measured=0.000911
binder="h22E11-5-IgG-LC × h22E11-VH1-69 (antibody, V domains shown, Humanized m22E11) VH: QVQLVQSGAEVKKPGSSVKVSCKVSGFSLTSYGVHWVRQAPGQGLEWLVVIWSDGSTTYNQKFQGRVTITKDESTSTVYMELSSLRSEDTAVYYCARQGGYRYDDAMDYWGQGTLVTVSS VL: EIVLTQSPGTLSLSPGERATLSCKASQSVDYDGNSYVAWYQQKPGQAPRLLIYAASNLESGIPDRFSGSGSGTDFTLTISRLEPEDFAVYYCQQSNEDPYTFGQGTKVEIK" value_measured=0.000991

Task: Quick one: koff for h22E11-VK4-1 × h22E11-VH5-51 (antibody, V domains shown, Humanized m22E11) VH: EVQLVQSGAEVKKPGESLKISCKVSGFSLTSYGVHWVRQMPGKGLEWLVVIWSDGSTTYNPSFQGQVTISKDKSISTVYLQWSSLKASDTAMYYCARQGGYRYDDAMDYWGQGTLVTVSS VL: DIVLTQSPDSLAVSLGERATINCKASQSVDYDGNSYVNWYQQKPGQPPKLLIYAASNLESGVPDRFSGSGSGTDFTLTISSLQAEDVAVYYCQQSNEDPYTFGQGTKVEIK ?
Output: 0.000881

Task: What measured koff goes with h22E11-VK4-1 × h22E11-VH3-23 (antibody, V domains shown, Humanized m22E11) VH: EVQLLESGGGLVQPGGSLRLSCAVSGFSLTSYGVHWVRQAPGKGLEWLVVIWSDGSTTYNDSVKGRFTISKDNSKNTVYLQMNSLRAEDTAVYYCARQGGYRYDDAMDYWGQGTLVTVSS VL: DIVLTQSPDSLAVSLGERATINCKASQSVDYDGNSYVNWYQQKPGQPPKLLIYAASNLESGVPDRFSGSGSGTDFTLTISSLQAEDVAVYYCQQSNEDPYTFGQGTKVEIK ?
Output: 0.000875

Task: Look at this binder and give its reported koff. h22E11-5-IgG-LC × h22E11-5-IgG-HC (antibody, V domains shown, Humanized m22E11; also called h22E11-5 IgG (lot 2)) VH: EVQLVESGGGLVQPGGSLRLSCAVSGFSLTSYGVHWVRQAPGKGLEWLVVIWSDGSTTYNSALKSRFTISKDNAKNSVYLQMNSLRAEDTAVYYCARQGGYRYDDAMDYWGQGTLVTVSS VL: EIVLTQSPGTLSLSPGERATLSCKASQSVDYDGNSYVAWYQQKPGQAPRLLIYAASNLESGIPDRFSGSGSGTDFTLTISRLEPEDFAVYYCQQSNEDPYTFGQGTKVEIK
Output: 0.0011

Task: Consider the binder h22E11-VK3-11 × h22E11-VH5-51 (antibody, V domains shown, Humanized m22E11) VH: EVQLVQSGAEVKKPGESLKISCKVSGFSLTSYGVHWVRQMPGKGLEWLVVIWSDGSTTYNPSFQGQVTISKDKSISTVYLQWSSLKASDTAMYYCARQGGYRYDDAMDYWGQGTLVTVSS VL: EIVLTQSPATLSLSPGERATLSCKASQSVDYDGNSYVNWYQQKPGQAPRLLIYAASNLESGIPARFSGSGSGTDFTLTISSLEPEDFAVYYCQQSNEDPYTFGQGTKVEIK and give its measured koff.
Output: 0.000875
